Assay: Membrane permeability study (Caco-2)
Assay type: in vitro ADME
Details: human, pH 7.4; Caco-2, 10 μM, 90 min, basolateral to apical
Label scheme for Papp B→A at 90 min, 10 µM: lower than 40 ×10⁻⁶ cm/s is Criterion not met, 40 ×10⁻⁶ cm/s and above is Criterion met.

# Mol, Group label
data = [
    ("C=CCn1c(=O)c2cnc(Nc3ccc(N4CC5CC(CN(CC(F)(F)F)C5)C4)cc3)nc2n1-c1cccc(C(C)(C)O)n1", "Criterion not met"),
    ("C=CCn1c(=O)c2cnc(Nc3ccc(N4CC5CC(C4)N5C(C)C)cc3)nc2n1-c1cccc(C(C)(C)O)n1", "Criterion met"),
]

Is reported Papp B→A at 90 min, 10 µM greater than or equal to 40 ×10⁻⁶ cm/s here: C=CCn1c(=O)c2cnc(Nc3ccc(N4CC5CC(C4)N5C)cc3)nc2n1-c1cccc(C(C)(C)O)n1
Criterion met

How about C=CCn1c(=O)c2cnc(Nc3ccc(N4C[C@@H]5C[C@H]4CN5C)c(C)c3)nc2n1-c1cccc(C(C)(C)O)n1 ?
Criterion not met

How about C=CCn1c(=O)c2cnc(Nc3ccc(N4CC5CC(C4)N5CCF)cc3)nc2n1-c1cccc(C(C)(C)O)n1 ?
Criterion not met
